- Test system: biotinyl-Ile-oxazolone
- assayExplanation: self-aminoacylation, catalytic enhancement (BIO) (fold over background); higher = more active; k-Seq, kA / k0A0; sequences stand for … in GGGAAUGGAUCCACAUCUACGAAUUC…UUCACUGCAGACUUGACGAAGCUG
Variants at the floor of the assay were thinned out.
The label depends only on self-aminoacylation: 1 if it is at least 1, -1 if it is smaller.

Known results for sequences:
[[record]]
sequencecontent = "AGUACCCUCGUCAUCGAGUGA [Fam2.1 aminoacylation ribozyme variant]"
categorylabel = 1

[[record]]
sequencecontent = "AGUCACCUAGGUCAUCGGGUC [Fam2.2 aminoacylation ribozyme variant]"
categorylabel = 1

[[record]]
sequencecontent = "CUACUUCAAACCAUCGGUCUC [Fam1A.1 aminoacylation ribozyme variant]"
categorylabel = -1


Now for another entry.
Entry AAGUAUGCUAAUAAUCGCAAG [Fam3.1 aminoacylation ribozyme variant] : is its self-aminoacylation no less than 1?
1

* * *

- Test system: biotinyl-Val-oxazolone
- assayExplanation: self-aminoacylation, catalytic enhancement (BVO) (fold over background); higher = more active; k-Seq, kA / k0A0; sequences stand for … in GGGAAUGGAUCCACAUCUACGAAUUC…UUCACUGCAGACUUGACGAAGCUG
This sample holds only a part of the variants without activity.
The label depends only on self-aminoacylation: satisfied if it is at least 1, not satisfied if it is smaller.

Known results for sequences:
[[record]]
sequencecontent = "AGUGACCUAGGUCAUCGGGUG [Fam2.2 aminoacylation ribozyme variant]"
categorylabel = "satisfied"

[[record]]
sequencecontent = "GAGUUUGCUAACAGUCGCAAG [Fam3.1 aminoacylation ribozyme variant]"
categorylabel = "satisfied"

[[record]]
sequencecontent = "AUGCACCUAGGUCAUCGGUUG [Fam2.2 aminoacylation ribozyme variant]"
categorylabel = "satisfied"

[[record]]
sequencecontent = "CCACACUUCAGGCAACCGGUC [Fam1B.1 aminoacylation ribozyme variant]"
categorylabel = "satisfied"

[[record]]
sequencecontent = "CUACUUAAAACACUCGGUCUG [Fam1A.1 aminoacylation ribozyme variant]"
categorylabel = "not satisfied"


Now for another entry.
Entry GAGUUGGCUAAUAGUCGCAAG [Fam3.1 aminoacylation ribozyme variant] : is its self-aminoacylation no less than 1?
satisfied

* * *

- System: biotinyl-Phe-oxazolone
- assayExplanation: self-aminoacylation, catalytic enhancement (BFO) (fold over background); higher = more active; k-Seq, kA / k0A0; sequences stand for … in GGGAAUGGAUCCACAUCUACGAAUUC…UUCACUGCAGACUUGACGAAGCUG
Fewer inactive variants are shown than the library holds.
valueType: self-aminoacylation

[[record]]
sequencecontent = "CCACCCUUCAAGCAAUCAGUC [Fam1B.1 aminoacylation ribozyme variant]"
measuredvalue = 5.72

[[record]]
sequencecontent = "AAAUUUGCUAAUAGUCGCGAG [Fam3.1 aminoacylation ribozyme variant]"
measuredvalue = 1.34

[[record]]
sequencecontent = "CCACACUCCACGCAAUCGGUC [Fam1B.1 aminoacylation ribozyme variant]"
measuredvalue = 0.759

[[record]]
sequencecontent = "AGGUUUGCUAAGAGUCGCAAG [Fam3.1 aminoacylation ribozyme variant]"
measuredvalue = 3.17


Turning to the following sequence.
Specify measured self-aminoacylation for AUUAUCCUGGUCAUCAAGUGA [Fam2.1 aminoacylation ribozyme variant] .
10.1

* * *

- Test system: biotinyl-Ile-oxazolone
- assayExplanation: self-aminoacylation, catalytic enhancement (BIO) (fold over background); higher = more active; k-Seq, kA / k0A0; sequences stand for … in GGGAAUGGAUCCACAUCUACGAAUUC…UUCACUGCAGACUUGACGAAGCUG
This sample holds only a part of the variants without activity.
The label depends only on self-aminoacylation: MET if it is at least 0.9, NOT MET if it is smaller.

Known results for sequences:
[[record]]
sequencecontent = "CUACUUCAAACAAUCGGUCCG [Fam1A.1 aminoacylation ribozyme variant]"
categorylabel = "NOT MET"

[[record]]
sequencecontent = "AUUCACCAAGGUCAUCGGCUG [Fam2.2 aminoacylation ribozyme variant]"
categorylabel = "MET"

[[record]]
sequencecontent = "CCACAUUUCAAGCAACCGGUC [Fam1B.1 aminoacylation ribozyme variant]"
categorylabel = "MET"

[[record]]
sequencecontent = "AAGUUUGCUAAGAGUAGCAAG [Fam3.1 aminoacylation ribozyme variant]"
categorylabel = "NOT MET"

[[record]]
sequencecontent = "CUAGUUCAAACAAUCCGUCUG [Fam1A.1 aminoacylation ribozyme variant]"
categorylabel = "NOT MET"


Entry AAGAUUGCUAAUAGUCGCAAA [Fam3.1 aminoacylation ribozyme variant] : is its self-aminoacylation no less than 0.9?
MET

Entry CUACUUCAAACAAUCGGCGUG [Fam1A.1 aminoacylation ribozyme variant] : is its self-aminoacylation no less than 0.9?
MET

Entry AUUCACCUAGGUCCUCGGGCG [Fam2.2 aminoacylation ribozyme variant] : is its self-aminoacylation no less than 0.9?
MET

* * *

Reported self-aminoacylation values for a set of sequences
- Test system: biotinyl-Phe-oxazolone
- assayExplanation: self-aminoacylation, catalytic enhancement (BFO) (fold over background); higher = more active; k-Seq, kA / k0A0; sequences stand for … in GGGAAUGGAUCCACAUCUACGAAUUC…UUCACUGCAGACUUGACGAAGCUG
Variants at the floor of the assay were thinned out.

As a guide, the following entries are already answered.
[[record]]
sequencecontent = "AAGUUUGCUAAUACUCGCCAG [Fam3.1 aminoacylation ribozyme variant]"
targetorsystem = "biotinyl-Phe-oxazolone"
measuredvalue = 0.993

[[record]]
sequencecontent = "AAGUUUUCUACUAGUCGCAAG [Fam3.1 aminoacylation ribozyme variant]"
targetorsystem = "biotinyl-Phe-oxazolone"
measuredvalue = 3.09

[[record]]
sequencecontent = "AAGUCUUCUAAUAGUCGCAAG [Fam3.1 aminoacylation ribozyme variant]"
targetorsystem = "biotinyl-Phe-oxazolone"
measuredvalue = 3.19

[[record]]
sequencecontent = "AAGUUUGCCAAUAGUCGAAAG [Fam3.1 aminoacylation ribozyme variant]"
targetorsystem = "biotinyl-Phe-oxazolone"
measuredvalue = 0.727

[[record]]
sequencecontent = "AUUCACCUAGGGUAUCGGGUG [Fam2.2 aminoacylation ribozyme variant]"
targetorsystem = "biotinyl-Phe-oxazolone"
measuredvalue = 50.9

[[record]]
sequencecontent = "AAGUCUGCUAAUAGUCACAAG [Fam3.1 aminoacylation ribozyme variant]"
targetorsystem = "biotinyl-Phe-oxazolone"
measuredvalue = 12.6


Specify measured self-aminoacylation for AUUACCCUGGUCGUAGAGUGA [Fam2.1 aminoacylation ribozyme variant] .
3.08

Specify measured self-aminoacylation for AAGUUUGAUAAUACUCGCAAG [Fam3.1 aminoacylation ribozyme variant] .
0.788

Specify measured self-aminoacylation for AUUACCCCGGUCAUCGAGAGA [Fam2.1 aminoacylation ribozyme variant] .
1.03

Specify measured self-aminoacylation for CUACUGCAACCAAUCGGUCUG [Fam1A.1 aminoacylation ribozyme variant] .
0.691

Specify measured self-aminoacylation for AAGUUUGCAAAUAGUCGCCAG [Fam3.1 aminoacylation ribozyme variant] .
2.38

Specify measured self-aminoacylation for CCACACUUCAAGCAAACGGUG [Fam1B.1 aminoacylation ribozyme variant] .
10.7

* * *

- Tested on: biotinyl-Ile-oxazolone
- assayExplanation: self-aminoacylation, catalytic enhancement (BIO) (fold over background); higher = more active; k-Seq, kA / k0A0; sequences stand for … in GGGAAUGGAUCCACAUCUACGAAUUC…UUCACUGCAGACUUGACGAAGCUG
Variants at the floor of the assay were thinned out.
The label depends only on self-aminoacylation: 1.0 if it is at least 1, 0.0 if it is smaller.

Known results for sequences:
[[record]]
sequencecontent = "AUUCACCUAGUUCUUCGGGUG [Fam2.2 aminoacylation ribozyme variant]"
categorylabel = 1.0

[[record]]
sequencecontent = "AUUAACCUGGUCAUCGGGUGA [Fam2.1 aminoacylation ribozyme variant]"
categorylabel = 1.0

[[record]]
sequencecontent = "AAGUUUGAUAAUACUCGCAAG [Fam3.1 aminoacylation ribozyme variant]"
categorylabel = 0.0

[[record]]
sequencecontent = "AUUACCCUGGCCAUCGCGUGA [Fam2.1 aminoacylation ribozyme variant]"
categorylabel = 1.0

[[record]]
sequencecontent = "AUUACCCUGGUCAUAGAGCGA [Fam2.1 aminoacylation ribozyme variant]"
categorylabel = 1.0

[[record]]
sequencecontent = "ACUACCCAGGUCAUCGAGUGA [Fam2.1 aminoacylation ribozyme variant]"
categorylabel = 1.0

[[record]]
sequencecontent = "GCACCCUUCAAGCAAUCGGUC [Fam1B.1 aminoacylation ribozyme variant]"
categorylabel = 1.0

[[record]]
sequencecontent = "CUACUUCAAACAAUCGAGCUG [Fam1A.1 aminoacylation ribozyme variant]"
categorylabel = 0.0


Entry AAGUUAGCUAAUAGUCGCCAG [Fam3.1 aminoacylation ribozyme variant] : is its self-aminoacylation no less than 1?
1.0

Entry CUAAUUCAAACAAACGGUCUG [Fam1A.1 aminoacylation ribozyme variant] : is its self-aminoacylation no less than 1?
0.0

Entry CUUACCCUGGUGAUCGAGUGA [Fam2.1 aminoacylation ribozyme variant] : is its self-aminoacylation no less than 1?
1.0

Entry AAUACCCUGGUGAUCGAGUGA [Fam2.1 aminoacylation ribozyme variant] : is its self-aminoacylation no less than 1?
1.0
